# target.desc: T1, hNav1.7-loopA3-llama Fc fusion (human)
# T1 construct: also called hNav1.7-loopA3-llFc; loopA3-llamaFc chimera
# T1 chain: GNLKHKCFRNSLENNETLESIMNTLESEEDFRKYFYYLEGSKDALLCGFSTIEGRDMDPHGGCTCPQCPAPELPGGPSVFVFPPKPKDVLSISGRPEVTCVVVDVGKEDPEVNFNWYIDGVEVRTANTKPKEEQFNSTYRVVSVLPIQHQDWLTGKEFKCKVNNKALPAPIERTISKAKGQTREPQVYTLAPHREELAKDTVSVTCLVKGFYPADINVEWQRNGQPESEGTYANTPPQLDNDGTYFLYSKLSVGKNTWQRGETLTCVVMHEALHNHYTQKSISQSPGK
# assay.notes: ELISA, coated hNav1.7-loopA3-llama Fc, mAb titrated
# Description: mAbs originating from the loopA3-llama Fc immunization were assayed for their affinity for hNav1.7-loopA3. Therefore, a Maxisorp plate was coated with 10 ng/well of loopA3-llamaFc chimera and incubated overnight at 4° C. […] Antibody binding to loopA3 was detected using a HRP-conjugated anti-human Fc antibody (Abcam, Ab7499) (incubation 1 hour at RT, dilution 1/5000 in PBS+0.1% casein), followed by TMB addition and OD620 nm measurement. EC50 values were determined using GraphPad Prism software. […]

{"binder": "4F6 (antibody, human IgG1, V domains shown) VH: QLQLVESGGGLVQPGGSLRLSCAASGFTFDDYAMSWVRQAPGKGLEWVSAISWNGGSTYYAESMKGRFTISRDNAKNTLYLQMNSLKSKDTAVYYCARRRYGLGSEYDYWGQGTQVTVSS VL: HSAVTQPSAVSVSLGQTARITCQGTNLRSSYVHWYQQMPGQAPVLVIYRDSERPSGIPERFSGSSSGGTATLAISGAQAEDEADYYCQSAHRSESAVFGGGTHLTVLG", "EC50 / nM": 0.874}
{"binder": "4H6 (antibody, human IgG1, V domains shown) VH: QVQLQESGPGLVKPSQTLSLTCTVSGGSITNYGWSWIRQPPGKGLEWMGVIAYDGSTYYSPSLKSRTSISRDTSKNQFSLQLSSVTPEDTAVYYCASAMVTTSSPWVKTFGAWGQGTQVTVSS VL: QAGLTQPPSVSGSPGKTVTISCAGTSSDVGYGNYVSWYQQLPGMAPKLLLYSVNKRASGIADRFSGSKSGNTASLTISGLQSEDEADYYCGCYDSSLSTPVFGGGTKLTVLG", "EC50 / nM": 0.067}
{"binder": "3E1 (antibody, human IgG1, V domains shown) VH: EVQVQESGGGLVQPGGSLRLSCAASGFTFSSYWMYWVRQAPGKGLEWVSAINTGGGSTYYADSVKGRFTISRDNAKNTLYLQMNSLKPEDTALYYCARGPGYSGKYIEGWAYWGQGTQVTVSS VL: DIVMTQSPSSVTASVGEKVTINCKSSQSVVSGSKQKSYLNWYQQRPGQSPRLLIYYASTQESGIPDRFSGSGSTTDFTLTISSVQPEDAAVYYCQQAYSAPYSFGSGTRLEIK", "EC50 / nM": 0.063}
